Measured values drawn from patent US11053204B2 for this set.

# System: morningglory (Ipomoea coccinea)
# protocol: Test C postemergence, plant response rating
# Assay type: in vivo
# condition.details: Ipomoea, post-emergence, 125 g ai/ha, scale 0 to 100 (0 no effect, 100 complete control)
Note to self: values exactly at 70% are TRUE. So pest or weed control at 125 g/ha at or above 70% is TRUE, below is FALSE.

structure_smiles=O=C(CCC(F)(F)F)c1c(Cl)cccc1Oc1ncc(Cl)cn1 discrete_label=TRUE
structure_smiles=N#Cc1cccc(Oc2ncc(Cl)cn2)c1CCCCC(F)(F)F discrete_label=TRUE
structure_smiles=O=C(OCC(F)(F)C(F)(F)F)c1c(Br)cccc1Oc1ncc(Cl)cn1 discrete_label=FALSE
structure_smiles=C=CCOC(=O)c1c(Br)cccc1Oc1ncc(Cl)cn1 discrete_label=FALSE

----------
Measured Plant response rating, Ryegrass, Italian, listed per entry for reference.
# System: Italian ryegrass (Lolium multiflorum)
# protocol: Test A preemergence, visual injury rating
# Assay type: in vivo
# condition.details: 31 g ai/ha, 0 to 100 scale, 0 no effect, 100 complete control
quantity.name: Plant response rating, Ryegrass, Italian

compound=O=C(CCC(F)(F)C(F)(F)F)c1c(Br)cccc1Oc1ncc(Cl)cn1 quantity_name="Plant response rating, Ryegrass, Italian" val=0
compound=CN(CCCC(F)(F)F)c1c(C#N)cccc1Oc1ncc(Cl)cn1 quantity_name="Plant response rating, Ryegrass, Italian" val=0
compound=CC(=NOC(C)C)c1c(F)cccc1Oc1ncc(Cl)cn1 quantity_name="Plant response rating, Ryegrass, Italian" val=0
compound=CC(=NOC(C)C)c1c(C#N)cccc1Oc1ncc(Cl)cn1 quantity_name="Plant response rating, Ryegrass, Italian" val=0
compound="N#CC(CCCC(F)(F)F)c1ccccc1Oc1ncc(Cl)cn1 (centres unmarked)" quantity_name="Plant response rating, Ryegrass, Italian" val=20

----------
# Tested on: barnyardgrass (Echinochloa crus-galli)
# protocol: Test A preemergence, visual injury rating
# Assay type: in vivo
# condition.details: 31 g ai/ha, 0 to 100 scale, 0 no effect, 100 complete control
quantity.name: Plant response rating, Barnyardgrass

compound=CC(=NOC(C)C)c1c(C#N)cccc1Oc1ncc(Cl)cn1 quantity_name="Plant response rating, Barnyardgrass" val=70
compound=CC(C)COC(=O)c1c(Br)cccc1Oc1ncc(Cl)cn1 quantity_name="Plant response rating, Barnyardgrass" val=20
compound=CC(=NOC(C)C)c1c(Br)cccc1Oc1ncc(Cl)cn1 quantity_name="Plant response rating, Barnyardgrass" val=0
compound="O=C(OCC(Cl)CCl)c1c(Br)cccc1Oc1ncc(Cl)cn1 (centres unmarked)" quantity_name="Plant response rating, Barnyardgrass" val=0
compound=N#Cc1cccc(Oc2ncc(Cl)cn2)c1C(=O)CCC(F)(F)C(F)(F)F quantity_name="Plant response rating, Barnyardgrass" val=0
compound=FC(F)(F)CCCCc1c(Oc2ncc(Cl)cn2)cccc1C1CC1 quantity_name="Plant response rating, Barnyardgrass" val=0
compound=N#Cc1cccc(Oc2ncc(Cl)cn2)c1COCCC(F)(F)F quantity_name="Plant response rating, Barnyardgrass" val=60
compound=O=C(OC(CCl)CCl)c1c(Br)cccc1Oc1ncc(Cl)cn1 quantity_name="Plant response rating, Barnyardgrass" val=0
compound=CC(=NOC(C)C)c1c(Cl)cccc1Oc1ncc(Cl)cn1 quantity_name="Plant response rating, Barnyardgrass" val=0
compound=FC(F)(F)COCc1c(Br)cccc1Oc1ncc(Cl)cn1 quantity_name="Plant response rating, Barnyardgrass" val=30
compound=C#CCCOC(=O)c1c(Br)cccc1Oc1ncc(Cl)cn1 quantity_name="Plant response rating, Barnyardgrass" val=20

----------
# Tested on: barnyardgrass (Echinochloa crus-galli)
# protocol: Test A preemergence, visual injury rating
# Assay type: in vivo
# condition.details: 125 g ai/ha, 0 to 100 scale (0 no effect, 100 complete control)
Measured Barnyardgrass plant response rating, listed per entry for reference.
quantity.name: Barnyardgrass plant response rating

molecule="O=C(OCCCC(F)(F)F)c1c(Oc2ncc(Cl)cn2)cccc1C(F)(F)F [Compound 65]" tested_on="barnyardgrass (Echinochloa crus-galli)" val=30
molecule="C=CC(C)COC(=O)c1c(Br)cccc1Oc1ncc(Cl)cn1 (centres unmarked) [Compound 37]" tested_on="barnyardgrass (Echinochloa crus-galli)" val=30
molecule="CC(=NOC(C)C)c1c(F)cccc1Oc1ncc(Cl)cn1 [Compound 76]" tested_on="barnyardgrass (Echinochloa crus-galli)" val=70
molecule="O=C(CCCCC(F)(F)F)c1c(Br)cccc1Oc1ncc(Cl)cn1 [Compound 82]" tested_on="barnyardgrass (Echinochloa crus-galli)" val=100
molecule="CCCCC(=O)c1c(C#N)cccc1Oc1ncc(Cl)cn1 [Compound 68]" tested_on="barnyardgrass (Echinochloa crus-galli)" val=70

----------
# Test system: barnyardgrass (Echinochloa crus-galli)
# protocol: Test A preemergence, visual injury rating
# Assay type: in vivo
# condition.details: 500 g ai/ha, 0 to 100 scale (0 no effect, 100 complete control)
Measured Barnyardgrass plant response rating, listed per entry for reference.
quantity.name: Barnyardgrass plant response rating

molecule=O=C(OCC1CCCC1)c1c(Br)cccc1Oc1ncc(Cl)cn1 val=60
molecule="CC(CN(C)C(=O)c1c(Br)cccc1Oc1ncc(Cl)cn1)C(F)(F)F (centres unmarked)" val=0
molecule=O=C(CCCC(F)(F)F)c1c(Oc2ncc(Cl)cn2)cccc1C(F)(F)F val=100
molecule=O=C(OCCC(F)(F)F)c1c(Br)cccc1Oc1ncc(Br)cn1 val=100
molecule=N#Cc1cccc(Oc2ncc(Cl)cn2)c1CCCC(F)(F)F val=100
molecule=O=C(OCCC(F)(F)F)c1c(F)cccc1Oc1ncc(Cl)cn1 val=0
molecule=CC(C)=CCOC(=O)c1c(Br)cccc1Oc1ncc(Cl)cn1 val=30
molecule=N#CCOC(=O)c1c(F)cccc1Oc1ncc(Cl)cn1 val=0
molecule=CN(OCC(F)(F)F)C(=O)c1c(Br)cccc1Oc1ncc(Cl)cn1 val=30
molecule=CCOCc1c(Br)cccc1Oc1ncc(Cl)cn1 val=100
molecule=C=C(Br)COC(=O)c1c(Br)cccc1Oc1ncc(Cl)cn1 val=100

----------
# Tested on: johnsongrass (Sorghum halepense)
# protocol: Test C postemergence, plant response rating
# Type: in vivo
# condition.details: 31 g ai/ha, scale 0 to 100
The threshold is 20. Values of Plant response rating, Johnsongrass beneath it are tagged T; values meeting or exceeding it are tagged F.

molecule="FC(F)(F)CCCCc1c(Cl)cccc1Oc1ncc(Cl)cn1 [Compound 137]" tested_on="johnsongrass (Sorghum halepense)" discrete_label=T
molecule="CCCCC(=O)c1c(Br)cccc1Oc1ncc(Cl)cn1 [Compound 79]" tested_on="johnsongrass (Sorghum halepense)" discrete_label=F
molecule="N#Cc1cccc(Oc2ncc(Cl)cn2)c1CCCC(F)(F)F [Compound 72]" tested_on="johnsongrass (Sorghum halepense)" discrete_label=T
molecule="O=C(OCC(F)(F)C(F)(F)F)c1c(Br)cccc1Oc1ncc(Cl)cn1 [Compound 23]" tested_on="johnsongrass (Sorghum halepense)" discrete_label=T
molecule="FC(F)(F)CCCCc1c(Br)cccc1Oc1ncc(Cl)cn1 [Compound 138]" tested_on="johnsongrass (Sorghum halepense)" discrete_label=F
molecule="N#Cc1cccc(Oc2ncc(Cl)cn2)c1CCCCC(F)(F)F [Compound 73]" tested_on="johnsongrass (Sorghum halepense)" discrete_label=T
molecule="O=C(OCC(F)(F)F)c1c(Br)cccc1Oc1ncc(Cl)cn1 [Compound 35]" tested_on="johnsongrass (Sorghum halepense)" discrete_label=T

----------
# Tested on: waterhemp (common waterhemp, Amaranthus rudis)
# protocol: Test C postemergence, plant response rating
# Assay type: in vivo
# condition.details: 125 g ai/ha, scale 0 to 100 (0 no effect, 100 complete control)
Measured Waterhemp plant response rating, listed per entry for reference.
quantity.name: Waterhemp plant response rating

structure_smiles=C=CCOC(=O)c1c(Br)cccc1Oc1ncc(Cl)cn1 tested_on="waterhemp (common waterhemp, Amaranthus rudis)" val=80
structure_smiles=FC(F)(F)CCCCc1c(Br)cccc1Oc1ncc(Cl)cn1 tested_on="waterhemp (common waterhemp, Amaranthus rudis)" val=100
structure_smiles=N#Cc1cccc(Oc2ncc(Cl)cn2)c1CCCCC(F)(F)F tested_on="waterhemp (common waterhemp, Amaranthus rudis)" val=100
structure_smiles=FC(F)(F)CCCc1c(Br)cccc1Oc1ncc(Cl)cn1 tested_on="waterhemp (common waterhemp, Amaranthus rudis)" val=95
structure_smiles=N#CCCOC(=O)c1c(Br)cccc1Oc1ncc(Cl)cn1 tested_on="waterhemp (common waterhemp, Amaranthus rudis)" val=65
structure_smiles=O=C(OCCC(F)(F)F)c1c(Br)cccc1Oc1ncc(Cl)cn1 tested_on="waterhemp (common waterhemp, Amaranthus rudis)" val=100
structure_smiles=O=C(CCCC(F)(F)F)c1c(Br)cccc1Oc1ncc(Cl)cn1 tested_on="waterhemp (common waterhemp, Amaranthus rudis)" val=100
structure_smiles=CCCCC(=O)c1c(Br)cccc1Oc1ncc(Cl)cn1 tested_on="waterhemp (common waterhemp, Amaranthus rudis)" val=98
structure_smiles=FC(F)(F)CCCCc1c(Cl)cccc1Oc1ncc(Cl)cn1 tested_on="waterhemp (common waterhemp, Amaranthus rudis)" val=75
structure_smiles=CCCC(=O)c1c(Oc2ncc(Cl)cn2)cccc1C(F)(F)F tested_on="waterhemp (common waterhemp, Amaranthus rudis)" val=75
structure_smiles=O=C(OCC(F)(F)C(F)(F)F)c1c(Br)cccc1Oc1ncc(Cl)cn1 tested_on="waterhemp (common waterhemp, Amaranthus rudis)" val=95
